B1: SAM and SH3 domain-containing protein 1, residues 630 to 700; numbered along this chain, O94885 (parent)
chain: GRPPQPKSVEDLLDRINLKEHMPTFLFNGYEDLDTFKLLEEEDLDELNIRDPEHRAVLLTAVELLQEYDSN

Variants of: B1
test-details: abundance fitness (aPCA) (normalised: wild type 0, dead -1); higher = more abundant; growth selection in yeast, the domain comes from the species named
measurement-context: Homo sapiens
List of abundance fitness values.
readout-label: abundance fitness

[
  {
    "mutation-key": "D34I",
    "recorded-result": -0.793
  },
  {
    "mutation-key": "D14G",
    "recorded-result": -0.218
  },
  {
    "mutation-key": "R50A",
    "recorded-result": -0.301
  },
  {
    "mutation-key": "E10Q",
    "recorded-result": -0.445
  },
  {
    "mutation-key": "V62T",
    "recorded-result": -0.476
  },
  {
    "mutation-key": "T60N",
    "recorded-result": 0.348
  },
  {
    "mutation-key": "L38M",
    "recorded-result": -0.011
  },
  {
    "mutation-key": "L13T",
    "recorded-result": -0.861
  },
  {
    "mutation-key": "A61E",
    "recorded-result": 0.074
  },
  {
    "mutation-key": "M22Y",
    "recorded-result": 0.277
  },
  {
    "mutation-key": "E42S",
    "recorded-result": 0.102
  }
]
